Every entry's value here was drawn from patent US10703765B2.

target: UniProt:Q99720; assay: biochemical; format: binding; conditions: read-out: μ and σ1 dual binding
Sequence (Q99720 whole entry): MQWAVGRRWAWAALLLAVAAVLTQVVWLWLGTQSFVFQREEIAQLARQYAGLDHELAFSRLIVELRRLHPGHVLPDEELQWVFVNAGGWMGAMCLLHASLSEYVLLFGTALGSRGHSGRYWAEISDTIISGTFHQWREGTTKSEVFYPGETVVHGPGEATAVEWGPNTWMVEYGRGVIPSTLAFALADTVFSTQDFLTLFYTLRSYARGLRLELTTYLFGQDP
pKi: −log10 of the molar value. Counter-ions that a name gives are not always drawn.

Molecule | pKi
O=C(CN1CCC2(CC1)CN(Cc1ccc(C(F)(F)F)cn1)C(=O)CO2)c1ccccc1 [Example 99] | < 6.30
CC1OC2(CCN(CCc3cc(N)ccn3)CC2)CN(c2ccccc2)C1=O (centres unmarked) [Example 30, hydrochloride] | < 6.30
CC1OC2(CCN(CCOc3cccnc3)CC2)CN(c2ccccc2)C1=O (centres unmarked) [Example 145, hydrochloride] | < 6.30
CC1OC2(CCN(CCc3ccc([N+](=O)[O-])cc3)CC2)CN(c2ccccc2)C1=O (centres unmarked) [Example 66] | < 6.30
CC(=O)Nc1cccc(CCN2CCC3(CC2)CN(c2ccccc2)C(=O)[C@H](C)O3)c1 [Example 244a, hydrochloride] | > 6.30
O=C(O)CC1OC2(CCN(CCc3ccccc3)CC2)CN(c2ccccc2)C1=O (centres unmarked) [Example 270, hydrochloride] | < 6.30
Oc1cccc(N2CCOC3(CCN(Cc4ccccc4)CC3)C2)c1 [Example 318] | > 6.30
CC1OC2(CCN(CC(=O)N(C)c3ccccc3)CC2)CN(c2ccccc2)C1=O (centres unmarked) [Example 315, hydrochloride] | < 6.30
